Protocol: Stability assay in rat plasma and human serum (metabolic half life)
Conditions: Half life (h), 37° C., matrix of the values not specified
Measured quantity: half-life at 0.043 mM (h)
Give a bare numeral; the unit h is implied.

Incoming: GET /values?readout=half-life at 0.043 mM&item= NC(=O)CC[C@@H]1NC(=O)[C@H](Cc2ccccc2)NC(=O)[C@H](Cc2ccc(O)cc2)NC(=O)[C@@H](N)CSSC[C@@H](C(=O)N2CCC[C@H]2C(=O)N[C@@H](CCCN=C(N)N)C(=O)NCC(N)=O)NC(=O)[C@H](CC(N)=O)NC1=O
Outgoing: 2

Source of measurements: patent US20130130985A1
